- test system: T1, canine PD-1 protein amino acids 25-168 with His tag (canine, UniProt A0A090BAM7 25-168)
- T1 construct: Expressed in Expi293F cells; used as immunogen and as antigen in ELISA and Octet; also called PD-1 His
- T1 sequence (A0A090BAM7 entry or part of it limits assumed): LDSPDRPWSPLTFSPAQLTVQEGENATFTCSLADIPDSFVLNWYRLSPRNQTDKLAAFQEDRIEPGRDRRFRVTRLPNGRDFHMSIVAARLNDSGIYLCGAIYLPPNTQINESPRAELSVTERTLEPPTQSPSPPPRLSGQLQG
- protocol: ELISA, PD-1 His 100 ng/mL, clone supernatant
binders and their reported O.D. determined by ELISA
// response body must contain only the number

Worked examples, 2 binders total:
{"binder": "PD-1 A-M23 (antibody, mouse IgG1, V domains shown, Mouse IgG1 kappa, hybridoma supernatant; also called 18A08) VH: EVRLQQSGAELVKPGASVKLSCTASGFNIKDTYLHWLKERPEQGLEWIGRIDPAIGNTRYDPKFQVKATITADTSSNTAYLQLSSLTSEDSAVYYCARGFYGMDYWGQGTSVTVSS VL: QIVLTQSPAIMSASPGEKVTMTCSASSSVSYMFWYQQKPGSSPRLWIYDTSNLVSGVPARFSGSRSGTSYSLTISSMEAEDAATYYCQQYSGYPYTFGGGTKLEIK", "O.D. determined by ELISA": 2.58}
{"binder": "PD-1 A-M3 (antibody, mouse IgG1, V domains shown, Mouse IgG1 kappa, hybridoma supernatant; also called 4G01) VH: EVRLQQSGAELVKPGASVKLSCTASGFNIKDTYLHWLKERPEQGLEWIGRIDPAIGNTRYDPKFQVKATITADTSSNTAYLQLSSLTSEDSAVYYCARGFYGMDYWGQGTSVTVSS VL: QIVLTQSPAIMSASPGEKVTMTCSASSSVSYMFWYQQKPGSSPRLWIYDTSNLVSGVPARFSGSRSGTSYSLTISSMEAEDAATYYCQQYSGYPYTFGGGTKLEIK", "O.D. determined by ELISA": 2.87}

Tell me measured O.D. determined by ELISA for PD-1 A-M15 (antibody, mouse IgG1, V domains shown, Mouse IgG1 kappa, hybridoma supernatant; also called 11E10) VH: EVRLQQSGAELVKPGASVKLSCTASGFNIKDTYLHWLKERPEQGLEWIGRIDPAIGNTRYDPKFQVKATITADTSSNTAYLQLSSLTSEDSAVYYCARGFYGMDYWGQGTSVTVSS VL: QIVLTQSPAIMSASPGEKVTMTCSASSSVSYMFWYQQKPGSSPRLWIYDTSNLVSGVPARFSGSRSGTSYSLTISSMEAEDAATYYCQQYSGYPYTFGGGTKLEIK please.
2.34
